- procedureDetails: Photochromic PMMA cast film: initial coloration density, maximum absorption wavelength and fatigue life in xenon fadeometer (Example 9)
- Type: physicochemical
- conditionNotes: time for color density to fall to half of initial value; PMMA cast film 0.1 mm, xenon fadeometer, no stabilizer
reportedEndpoint: T1/2 (h)
# number only, unit h dropped from output

Bench note: what T1/2 did COC12CCCC(CCC1)C21c2c(Cl)csc2C(C2CC2CCc2ccccc2)=C2C(=O)N(CC(=O)NCCBr)C(=O)C21 (stereo not shown) show?
54

Bench note: what T1/2 did CCSC1CC1C1=C2C(=O)N(C(CC)COC(=O)OC[N+](=O)[O-])C(=O)C2C2(c3scc([N+](=O)[O-])c31)C1CC3CC2CC(C)(C3)C1 (stereo not shown) show?
75

Bench note: what T1/2 did CC1CC1C1=C2C(=O)N(CCCCCc3cccc4ccccc34)C(=O)C2C2(c3sc4c(c31)CCCC4)C1CC3CC(C1)CC2C3 (stereo not shown) show?
62

Others:
Bench note: what T1/2 did CC1=C2C(=O)N(CCCCC(=O)OCCc3ccc4ccccc4c3)C(=O)C2C2(c3sccc31)C1CC3CC(C1)CC2C3 (stereo not shown) [(B), reference compound] show?
16

Bench note: what T1/2 did CC1=C2C(=O)N(C[N+](=O)[O-])C(=O)C2C2(c3sc(C)cc31)C1CCC2CC1 (stereo not shown) [(C), reference compound] show?
80

Bench note: what T1/2 did CC1=C2C(=O)OC(=O)C2C2(c3sc4c(c31)CCCC4)C1CCCC2CCC1 (stereo not shown) [(G), reference compound] show?
10

Bench note: what T1/2 did CCC(C(=O)OCCc1ccc2ccccc2c1)N1C(=O)C2=C(C3CC3)c3ccsc3C3(C4CC5CC(C4)CC3C5)C2C1=O (stereo not shown) show?
61

* * *

- procedureDetails: Photochromic PMMA cast film: initial coloration density, maximum absorption wavelength and fatigue life in xenon fadeometer (Example 9)
- Assay type: physicochemical
- conditionNotes: PMMA cast film 0.1 mm, xenon light
reportedEndpoint: λmax (nm)
# number only, unit nm dropped from output

Bench note: what λmax did COc1cc2c(c(OC)c1OC)C1(C3CCC1CC3)C1C(=O)OC(=O)C1=C2C1CC1 (stereo not shown) show?
561

Bench note: what λmax did CC1=C2C(=O)N(C[N+](=O)[O-])C(=O)C2C2(c3sc(C)cc31)C1CCC2CC1 (stereo not shown) [(C), reference compound] show?
556

Bench note: what λmax did O=C1C2=C(C3CC3)c3sc4c(c3C3(C5CCCC3CCC5)C2C(=O)N1CCc1cccc2ccccc12)CCCC4 (stereo not shown) show?
519

Bench note: what λmax did NC1CC1C1=C2C(=O)N(COC(=O)Cc3cccc4ccccc34)C(=O)C2C2(c3c1ccn3-c1ccccc1)C1(O)CCC2(O)CC1 (stereo not shown) show?
613

Bench note: what λmax did CC1=C2C(=O)N(CC#N)C(=O)C2C2(c3occc31)C1CCC2CC1 (stereo not shown) [(D), reference compound] show?
535

Others:
Bench note: what λmax did CCn1c2c(c3ccccc31)C(C1CC1C(=O)O)=C1C(=O)N(CC(=O)OCCC#N)C(=O)C1C21C2CC3CC(O)(C2)CC1(O)C3 (stereo not shown) show?
576

Bench note: what λmax did CCC(C#N)N1C(=O)C2=C(C3CC3[N+](=O)[O-])c3c(sc4c3CCCC4)C3(C4CCCC3(C)CCC4)C2C1=O (stereo not shown) show?
562

Bench note: what λmax did COC(=O)C(C)N1C(=O)C2=C(C3CC3(C)C)c3ccoc3C3(C4CCC3(Cl)CC4)C2C1=O (stereo not shown) show?
581

Bench note: what λmax did CCCC1CC1C1=C2C(=O)N(C(C)C(C)=O)C(=O)C2C2(c3oc(OC)cc31)C1CCCC2CCC1 (stereo not shown) show?
569

Bench note: what λmax did O=C(CCCCN1C(=O)C2=C(C3CC3)c3ccsc3C3(C4CC5CC(C4)CC3C5)C2C1=O)OCCc1ccc2ccccc2c1 (stereo not shown) show?
549
